molecular target: Biotinylated CoV2 Spike ECD PreS-AVI protein (SARS-CoV-2, UniProt P0DTC2 14-1208); test: Octet binning; competitor 9B2
Can you tell me binning response for the items I'm about to list?
One number for each entry.

{"columns": ["BINDER", "binning response"],
 "data": [
  ["3D4 VHH-Fc (Fc fusion) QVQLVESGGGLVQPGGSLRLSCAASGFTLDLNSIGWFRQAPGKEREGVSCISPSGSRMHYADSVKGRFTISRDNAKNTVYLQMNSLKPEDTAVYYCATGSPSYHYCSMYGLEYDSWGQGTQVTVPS", 0.09],
  ["19C10 VHH-Fc (Fc fusion) QVQLVESGGGLVQPGGSLRLSCAASGFTLDLNSIGWFRQAPGKEREGVSCISPSASSTHYADSVKGRFTISRDNAKNTVYLQMNSLKPEDTAVYYCATGTPSYHYCSMYGLEYDDWGQGTQVTVSS", 0.11],
  ["15H7 VHH-Fc (Fc fusion) QVQLVESGGRLVQAGGSLRLSCAAPGRTFRNLTLGWFRQAPGKEREFVASTSWPDDEMTYYTDSVKGRFTISRDNAKNTVYLQMNSLKPEDTAVYYCAAASWSGRSTLSYDYDYWGQGTQVTVST", 0.08],
  ["8E9 VHH-Fc (Fc fusion) QVQLVESGGGLVEAGGSLRLSCVASGSSSSINAMGWYRQAPGKQRELVASISHDGETKYANSVKGRFTISRGNAKNTIYLQMNSLKPEDTAVYYCVGDVAWVVVAGEYDYWGQGTQVTVSS", 0.11],
  ["5A6 VHH-Fc (Fc fusion) QVQLVESGGGLAQAGGSLRLSCATSGLTFSMSAMGWFRQAPGNEREFVGVINWNGGSSRYADSVRGRFTISRDNAKNTVYLQMNSLKPEDTGVYYCAADALNIGTGEVNPRLYDYWGQGTQVMVSS", 0.11]
]}

Provide binning response values for the following items, in order.
1. 5D7 VHH-Fc (Fc fusion) QVQLVESGGGLVQAGGSLRLSCAASGRTGSRYIMGWFRQAPGKEREFVAAINWRGDSTYYADSVKGRFTIARDNAKNTAYLQMNSLKPEDTAVYYCVADRGESYYYTRSTEYTYWGQGTQVTVSS
2. 15H1 VHH-Fc (Fc fusion) QVQLVESGGGLAQAGGSLRLSCASSGLIFSGSAMGWFRQAPGKEREFVGVISWNGRTTYADSVKGRFTISRDDAVNMVWLQMNNLKPEDTAVYYCAADHLNYGSGDVNPRTYDYWGQGTQVTVSS

Response given:
1. 0.12
2. 0.08
